- Tested on: HS 578T breast
- PROCEDURE_DETAILS: NCI tumour cell line growth inhibition, 48 h
GI50 for assorted compounds
MEASUREMENT_LABEL: GI50

>  <COMPOUND>
O=c1c2sccc2n(CC2COc3ccccc3O2)c(=O)n1O (stereo not given)

>  <MEASUREMENT_LABEL>
GI50

>  <MEASUREMENT>
15.1 µM

$$$$
>  <COMPOUND>
C[C@@H]1CCC2[C@@H](C)[C@@H](OCC(CO[C@H]3OC4O[C@@]5(C)CC[C@H]6[C@H](C)CCC([C@H]3C)[C@@]46OO5)OC(=O)CCC(=O)O)OC3O[C@@]4(C)CC[C@@H]1[C@]32OO4 (stereo not given in full)

>  <MEASUREMENT_LABEL>
GI50

>  <MEASUREMENT>
1.81 µM

$$$$
>  <COMPOUND>
CC(=O)[C@@]12O[C@@H]1CC1C3CCC4=CC(O)CCC4(C)C3CCC12C (stereo not given in full)

>  <MEASUREMENT_LABEL>
GI50

>  <MEASUREMENT>
27.9 µM

$$$$
>  <COMPOUND>
COc1cccc(-c2nc(-c3ccc(NC(=O)C(C)C)cc3)[nH]c2-c2ccnc(Br)c2)c1

>  <MEASUREMENT_LABEL>
GI50

>  <MEASUREMENT>
0.548 µM

$$$$
>  <COMPOUND>
O=C(CCc1nnc2sc(-c3ccc(Cl)cc3Cl)nn12)c1nc2ncccc2[nH]1

>  <MEASUREMENT_LABEL>
GI50

>  <MEASUREMENT>
2.71 µM

$$$$
>  <COMPOUND>
COc1ccc(-c2nnc(COc3ccc(C(=O)/C=C/c4ccco4)cc3)o2)cc1

>  <MEASUREMENT_LABEL>
GI50

>  <MEASUREMENT>
7.43 µM

$$$$
>  <COMPOUND>
COc1cc2c3c(n(C)c(=O)c2cc1OC)-c1cc2c(cc1/C3=C\CCCN)OCO2

>  <MEASUREMENT_LABEL>
GI50

>  <MEASUREMENT>
24.7 µM

$$$$
>  <COMPOUND>
CCN(CC)c1ccc(-c2cc(-c3cc(OC)c(OC)c(OC)c3)nc(N3CCOCC3)c2C#N)cc1

>  <MEASUREMENT_LABEL>
GI50

>  <MEASUREMENT>
0.507 µM

$$$$
>  <COMPOUND>
Cc1cc(I)cc(CN(C)CCCN2CCCCC2)c1O

>  <MEASUREMENT_LABEL>
GI50

>  <MEASUREMENT>
9.75 µM

$$$$
>  <COMPOUND>
O=C1OC(O)[C@@H]2[C@H]1[C@H]1CC[C@@H]2O1 (stereo not given in full)

>  <MEASUREMENT_LABEL>
GI50

>  <MEASUREMENT>
> 100 µM

$$$$

###

- Test system: SF-295 CNS
- PROCEDURE_DETAILS: NCI tumour cell line growth inhibition, 48 h

>  <COMPOUND>
Cc1cc(O)c(/C=N/C(=S)NCc2ccccc2)c(=O)o1

>  <TESTED_ON>
SF-295 CNS

>  <TGI>
> 100 µM

$$$$
>  <COMPOUND>
O=c1c2sccc2n(CC2COc3ccccc3O2)c(=O)n1O (stereo unspecified)

>  <TESTED_ON>
SF-295 CNS

>  <TGI>
> 100 µM

$$$$
>  <COMPOUND>
COc1ccc(C2=N/C(=C\c3ccccc3)C(=O)O2)cc1

>  <TESTED_ON>
SF-295 CNS

>  <TGI>
> 100 µM

$$$$
>  <COMPOUND>
O=C1NCC2(CCN(CCCC3(c4ccc(F)cc4)OCCO3)CC2)N1c1ccccc1

>  <TESTED_ON>
SF-295 CNS

>  <TGI>
> 100 µM

$$$$
>  <COMPOUND>
CCOC(=O)c1cc2nc3ccccc3c(=O)n2c2ccccc12

>  <TESTED_ON>
SF-295 CNS

>  <TGI>
> 10 µM

$$$$
>  <COMPOUND>
CC(=O)OC1COC(n2ccc3cc(Br)c([N+](=O)[O-])cc32)C(OC(C)=O)C1OC(C)=O (stereo unspecified)

>  <TESTED_ON>
SF-295 CNS

>  <TGI>
66.7 µM

$$$$
>  <COMPOUND>
COC(=O)C1CCC(=O)N1C(c1ccc(OC)cc1)c1ccc2c(c1)OCO2 (stereo unspecified)

>  <TESTED_ON>
SF-295 CNS

>  <TGI>
48 µM

$$$$
>  <COMPOUND>
O=C(Nc1nccs1)c1c(O)nc2sccn2c1=O

>  <TESTED_ON>
SF-295 CNS

>  <TGI>
> 10 µM

$$$$
>  <COMPOUND>
OCc1ccc(-c2ccc(-c3ccc(CO)s3)o2)s1

>  <TESTED_ON>
SF-295 CNS

>  <TGI>
74.1 µM

$$$$
>  <COMPOUND>
COc1ccc2c(C)cc(=O)oc2c1OC

>  <TESTED_ON>
SF-295 CNS

>  <TGI>
> 100 µM

$$$$
>  <COMPOUND>
O=c1cc(-c2ccccc2)oc2cc(OCCCOc3ccc4c(=O)cc(-c5ccccc5)oc4c3)ccc12

>  <TESTED_ON>
SF-295 CNS

>  <TGI>
> 100 µM

$$$$

###

In this section, each of the compounds is paired with its reported TGI.
- Test system: OVCAR-5 ovarian
- PROCEDURE_DETAILS: NCI tumour cell line growth inhibition, 48 h
MEASUREMENT_LABEL: TGI (µM)

>  <SMILES_REPRESENTATION>
COc1ccc(/C=C(/C#N)n2nnc3cccc(F)c32)cc1

>  <MEASUREMENT_LABEL>
TGI

>  <UNIT_INFO>
µM

>  <LIMIT_QUALIFIER>
=

>  <MEASUREMENT>
4.56

$$$$
>  <SMILES_REPRESENTATION>
CC1(C)C2CCC1(C)[C@H](n1c(=O)n([C@@H]3CC4CCC3(C)C4(C)C)c(=O)n([C@@H]3CC4CCC3(C)C4(C)C)c1=O)C2

>  <MEASUREMENT_LABEL>
TGI

>  <UNIT_INFO>
µM

>  <LIMIT_QUALIFIER>
>

>  <MEASUREMENT>
100

$$$$
>  <SMILES_REPRESENTATION>
C=C1C(=O)O[C@H]2[C@H]1CC/C(COC(=O)c1c[nH]c3ccccc13)=C\CC[C@@]1(C)O[C@@H]21

>  <MEASUREMENT_LABEL>
TGI

>  <UNIT_INFO>
µM

>  <LIMIT_QUALIFIER>
=

>  <MEASUREMENT>
2.1

$$$$
>  <SMILES_REPRESENTATION>
COc1ccc2c(c1)/C(=C\c1c(Cl)nc3sc(C)cn13)C(=O)N2

>  <MEASUREMENT_LABEL>
TGI

>  <UNIT_INFO>
µM

>  <LIMIT_QUALIFIER>
=

>  <MEASUREMENT>
25.4

$$$$

###

- System: HCT-15 colon
- PROCEDURE_DETAILS: NCI tumour cell line growth inhibition, 48 h; in the data active = GI50 below about 0.43 µM; inactive = the rest
Labels: Y = active, N = inactive

>  <SMILES_REPRESENTATION>
C=C1C(=O)O[C@H]2[C@H]1CC/C(COC(=O)c1c[nH]c3ccccc13)=C\CC[C@@]1(C)O[C@@H]21

>  <TESTED_ON>
HCT-15 colon

>  <ASSIGNED_CLASS>
Y

$$$$
>  <SMILES_REPRESENTATION>
Cc1cc2c(cc1Cl)SC(N(N(C)C)S(=O)(=O)c1ccc(Cl)cc1)=NS2(=O)=O

>  <TESTED_ON>
HCT-15 colon

>  <ASSIGNED_CLASS>
N

$$$$
>  <SMILES_REPRESENTATION>
COc1ccc(-c2nnc(COc3ccc(NC(=O)Nc4cc(C(F)(F)F)cc(C(F)(F)F)c4)cc3F)o2)cc1

>  <TESTED_ON>
HCT-15 colon

>  <ASSIGNED_CLASS>
N

$$$$
>  <SMILES_REPRESENTATION>
CN(C(=O)c1ccc(C(F)(F)F)cc1)c1ccc(Oc2ccc3c(c2)cc(C(=O)N2CCN(Cc4ccc(OC(F)F)cc4)CC2)n3C)nc1

>  <TESTED_ON>
HCT-15 colon

>  <ASSIGNED_CLASS>
N

$$$$
>  <SMILES_REPRESENTATION>
ClCc1cccc(Cn2cnc3ncnc(Cl)c32)c1

>  <TESTED_ON>
HCT-15 colon

>  <ASSIGNED_CLASS>
N

$$$$

###

- Test system: SK-MEL-5 melanoma
- PROCEDURE_DETAILS: NCI tumour cell line growth inhibition, 48 h; in the data active = GI50 below about 0.43 µM; inactive = the rest
Possible outcomes: yes (1) for active, no (0) for inactive

>  <COMPOUND>
Cc1cc2c(cc1Cl)SC(N(N(C)C)S(=O)(=O)c1ccc(Cl)cc1)=NS2(=O)=O

>  <ASSIGNED_CLASS>
no (0)

$$$$
>  <COMPOUND>
OCCCCCNCc1cc2cc3c(cc2c2cc(OCc4ccccc4)ccc12)OCO3

>  <ASSIGNED_CLASS>
no (0)

$$$$
>  <COMPOUND>
O=C1c2cc3c(cc2-c2c1c1ccc(F)cc1c(=O)n2CCCNCCO)OCO3

>  <ASSIGNED_CLASS>
yes (1)

$$$$
>  <COMPOUND>
CN(C(=O)c1ccc(C(F)(F)F)cc1)c1ccc(Oc2ccc3c(c2)cc(C(=O)N2CCN(Cc4ccc(OC(F)F)cc4)CC2)n3C)nc1

>  <ASSIGNED_CLASS>
yes (1)

$$$$
>  <COMPOUND>
O=C1OC(O)[C@@H]2[C@H]1[C@H]1CC[C@@H]2O1 (stereo partly drawn)

>  <ASSIGNED_CLASS>
no (0)

$$$$
>  <COMPOUND>
COc1cc(/C=C/c2cc(O)c(C(C)=O)c(O)c2)cc2c1O[C@]1(C)CC[C@@H](O)C(C)(C)[C@H]1C2

>  <ASSIGNED_CLASS>
no (0)

$$$$
>  <COMPOUND>
COc1ccc(/C=C(/C#N)n2nnc3cccc(F)c32)cc1

>  <ASSIGNED_CLASS>
no (0)

$$$$
>  <COMPOUND>
O=C(Nc1ccc(Cl)cc1)c1cccc(NC2=C(Cl)C(=O)N(Cc3ccccc3)C2=O)c1

>  <ASSIGNED_CLASS>
no (0)

$$$$
